molecular target: T1, HLA-A*0201 HLA class I MHC monomer (iTopia Epitope Discovery System, coated on plate) (human); test: iTopia EDS peptide binding assay on plate-coated MHC monomer; % of positive control peptide
T1 construct: Placeholder peptide stripped; also called HLA-A2; MHC class I monomer
Label 1 when % Binding is at or above 60%; anything below gets 0.

- BINDER: "HILHVSFLA (Synthetic nonapeptide of human nectin4; the number is the start position in nectin4 (the range counts on nectin4)) [Nectin4 peptide 238 (HILHVSFLA)]"
  DISCRETE LABEL: 1
- BINDER: "AMLKCLSEG (Synthetic nonapeptide of human nectin4; the range counts on nectin4) [Nectin4 peptide 266 (AMLKCLSEG)]"
  DISCRETE LABEL: 1
- BINDER: "GTSDVVTVV (Synthetic nonapeptide of human nectin4; the range counts on nectin4) [Nectin4 peptide 35 (GTSDVVTVV)]"
  DISCRETE LABEL: 1
- BINDER: "LLLLASFTG (Synthetic nonapeptide of human nectin4; the range counts on nectin4) [Nectin4 peptide 19 (LLLLASFTG)]"
  DISCRETE LABEL: 1
- BINDER: "LLFCLLVVV (Synthetic nonapeptide of human nectin4; the range counts on nectin4) [Nectin4 peptide 359 (LLFCLLVVV)]"
  DISCRETE LABEL: 1
- BINDER: "RSYSTLTTV (Synthetic nonapeptide of human nectin4; the range counts on nectin4) [Nectin4 peptide 443 (RSYSTLTTV)]"
  DISCRETE LABEL: 1
- BINDER: "LLASFTGRC (Synthetic nonapeptide of human nectin4; the range counts on nectin4; also called Pep N° 21) [Nectin4 peptide 21 (LLASFTGRC)]"
  DISCRETE LABEL: 1
- BINDER: "AALLFCLLV (Synthetic nonapeptide of human nectin4; the range counts on nectin4) [Nectin4 peptide 357 (AALLFCLLV)]"
  DISCRETE LABEL: 0
- BINDER: "LVSASVVVV (Synthetic nonapeptide of human nectin4; the range counts on nectin4) [Nectin4 peptide 345 (LVSASVVVV)]"
  DISCRETE LABEL: 0
- BINDER: "AVTSEFHLV (Synthetic nonapeptide of human nectin4; the range counts on nectin4) [Nectin4 peptide 203 (AVTSEFHLV)]"
  DISCRETE LABEL: 1
- BINDER: "VLVPPLPSL (Synthetic nonapeptide of human nectin4; the range counts on nectin4) [antigen peptide N4-145 (VLVPPLPSL)]"
  DISCRETE LABEL: 1
- BINDER: "SMNGQPLTC (Synthetic nonapeptide of human nectin4; the range counts on nectin4) [Nectin4 peptide 215 (SMNGQPLTC)]"
  DISCRETE LABEL: 1
- BINDER: "ALLFCLLVV (Synthetic nonapeptide of human nectin4; the range counts on nectin4) [Nectin4 peptide 358 (ALLFCLLVV)]"
  DISCRETE LABEL: 0
- BINDER: "SASVVVVGV (Synthetic nonapeptide of human nectin4; the range counts on nectin4) [Nectin4 peptide 347 (SASVVVVGV)]"
  DISCRETE LABEL: 1
